System: OVCAR-4 ovarian
Test: NCI-60 one-dose screen, 48 h
Settings: 10 µM unless noted
This is part of a sample that, as a whole, favours compounds with a hit. Of some 83,000 tested, about 20% had one in any assay. Activity calls are given as the source filed them. Rule for the calls: active = growth percent below 10; inactive = the rest.
The categories you may choose from are yes for active, no for inactive

Previously resolved entries follow.
                                   compound  discretelabel
0  CCOC(=O)c1c(C)oc2ncnc(Nc3ccc(NC(=O)Nc4cccc(Cl)c4)cc3)c12             no
1  COc1ccc(Cn2cc3c(c2-c2ccc(O)cc2)CCc2cnoc2-3)cc1             no
2              Br/C(=N\Nc1nn[nH]n1)c1ccccc1             no
3                  CCOC(=O)CCCCCCCCC(=O)OCC             no
4  CCN(CCO)CCNc1ccc(C)c2sc3cc(OC)ccc3c(=O)c12             no

Q: What did the test return for CC(=O)Oc1cc2ccccc2cc1C(C)C ?
Ans: no

Q: What did the test return for COc1cc(-c2nn(-c3ccc(NC(=O)Nc4ccc(Cl)c(Cl)c4)cc3)cc2-c2ccncc2)ccc1Cl ?
Ans: no

Q: What did the test return for O=C(O)c1ccc(Br)nc1 ?
Ans: no

Q: What did the test return for NC(=O)c1c(Nc2ccccc2)nn2cc(-c3nc4ccccc4s3)c(N)nc12 ?
Ans: no

Q: What did the test return for C=CCN(C)C ?
Ans: no
